- tgt: hTDO2 in human glioblastoma A172 cells (Homo sapiens (Human), UniProt P48775)
- Sequence (P48775 whole entry): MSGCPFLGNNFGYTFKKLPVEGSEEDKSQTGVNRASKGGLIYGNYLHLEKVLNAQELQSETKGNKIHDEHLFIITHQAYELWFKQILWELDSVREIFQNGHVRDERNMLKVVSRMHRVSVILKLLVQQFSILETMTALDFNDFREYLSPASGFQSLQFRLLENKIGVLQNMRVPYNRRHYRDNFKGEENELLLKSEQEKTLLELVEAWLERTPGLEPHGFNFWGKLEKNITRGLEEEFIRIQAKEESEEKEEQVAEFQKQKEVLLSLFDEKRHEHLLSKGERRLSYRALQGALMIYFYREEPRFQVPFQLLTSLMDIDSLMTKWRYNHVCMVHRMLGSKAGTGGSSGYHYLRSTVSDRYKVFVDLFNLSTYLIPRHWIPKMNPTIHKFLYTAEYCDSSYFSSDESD
- assay-summary: Cellular assay for TDO2 activity determination in A172 cells
- test-context: overnight incubation, kynurenine absorbance at 480 nm
Give measured log10(IC50) for each item. Keep answers brief.
Could you please treat all values as log10 of IC50 in nM?

Which log10(IC50) reading was recorded for the compound O=C(CCNS(=O)(=O)c1ccc(-c2c[nH]c3cc(F)ccc23)cc1)N1CCNCC1 [Example 102] ?
2.41

Which log10(IC50) reading was recorded for the compound O=S(=O)(c1ccc(-c2c[nH]c3cc(F)ccc23)cc1)N1CC[C@@H](O)[C@@H](O)C1 [Example 128] ?
4.97

Which log10(IC50) reading was recorded for the compound NCCNS(=O)(=O)c1cc(-c2c[nH]c3cc(F)ccc23)ccc1F [Example 43] ?
2.61

Which log10(IC50) reading was recorded for the compound O=S(=O)(c1ccc(-c2c[nH]c3cc(F)ccc23)cc1)N(CCO)CCCO [Example 117] ?
2.04

Which log10(IC50) reading was recorded for the compound NC(=O)[C@H]1C[C@H](NS(=O)(=O)c2ccc(-c3c[nH]c4cc(F)ccc34)cc2)C1 [Example 97] ?
2.00

Which log10(IC50) reading was recorded for the compound C[C@@H]1CN(S(=O)(=O)c2ccc(-c3c[nH]c4cc(F)ccc34)cc2)C[C@@H](C)N1 [Example 14] ?
2.28

Which log10(IC50) reading was recorded for the compound O=S(=O)(c1ccc(-c2c[nH]c3cc(F)ccc23)cc1)N1CCOCC1 [Example 5] ?
2.40

Which log10(IC50) reading was recorded for the compound O=S(=O)(c1ccc(-c2c[nH]c3cc(F)ccc23)cc1C(F)(F)F)N1CCNCC1 [Example 24] ?
2.71

Which log10(IC50) reading was recorded for the compound O=S(=O)(c1ccc(-c2c[nH]c3cc(F)ccc23)cc1)N1CC[C@@H](O)[C@H](O)C1 [Example 130] ?
1.98

Which log10(IC50) reading was recorded for the compound CC(NS(=O)(=O)c1ccc(-c2c[nH]c3cc(F)ccc23)cc1)c1nncn1C (stereo not drawn) [Example 85] ?
2.59

Which log10(IC50) reading was recorded for the compound COc1ccc(-c2c[nH]c3cc(F)ccc23)cc1S(=O)(=O)NCCN [Example 33] ?
2.96

Which log10(IC50) reading was recorded for the compound NS(=O)(=O)c1cccc(-c2c[nH]c3cc(F)ccc23)c1 [Example 10] ?
1.92

Which log10(IC50) reading was recorded for the compound O=S(=O)(c1ccc(-c2c[nH]c3cc(F)ccc23)cc1Cl)N1CCNCC1 [Example 45] ?
2.36

Which log10(IC50) reading was recorded for the compound COc1cc(-c2c[nH]c3cc(F)ccc23)ccc1S(=O)(=O)N1CCNCC1 [Example 29] ?
2.28

Which log10(IC50) reading was recorded for the compound Cn1nccc1C1(O)CCN(S(=O)(=O)c2ccc(-c3c[nH]c4cc(F)ccc34)cc2)C1 (stereo not drawn) [Example 113] ?
4.96

Which log10(IC50) reading was recorded for the compound NC(=O)[C@H]1C[C@@H](NS(=O)(=O)c2ccc(-c3c[nH]c4cc(F)ccc34)cc2)C1 [Example 95] ?
2.15

Which log10(IC50) reading was recorded for the compound O=S(=O)(c1ccc(-c2c[nH]c3cc(F)ccc23)cc1)N1CC(O)C1 [Example 65] ?
2.20

Which log10(IC50) reading was recorded for the compound O=S(=O)(c1ccc(-c2c[nH]c3cc(F)ccc23)cc1)N1C[C@@H](F)C[C@@H]1CO [Example 126] ?
2.16

Which log10(IC50) reading was recorded for the compound O=S(=O)(c1ccc(-c2c[nH]c3cc(F)ccc23)cc1)N1CCC(O)C1 (stereo not drawn) [Example 124] ?
4.97

Which log10(IC50) reading was recorded for the compound NS(=O)(=O)c1ccc(-c2c[nH]c3cc(F)ccc23)cc1CO [Example 176] ?
1.74

Which log10(IC50) reading was recorded for the compound N[C@H]1CN(C(=O)CCNS(=O)(=O)c2ccc(-c3c[nH]c4cc(F)ccc34)cc2)C[C@H]1F (single isomer, unassigned) [Example 172] ?
2.98

Which log10(IC50) reading was recorded for the compound O=S(=O)(NCCc1ncc[nH]1)c1ccc(-c2c[nH]c3cc(F)ccc23)cc1 [Example 73] ?
2.18

Which log10(IC50) reading was recorded for the compound CC(=O)n1cc(-c2ccc(S(=O)(=O)N3CCNCC3)cc2)c2ccc(F)cc21 [Example 70] ?
2.76

Which log10(IC50) reading was recorded for the compound CS(=O)(=O)NCCNS(=O)(=O)c1ccc(-c2c[nH]c3cc(F)ccc23)cc1 [Example 21] ?
2.08

Which log10(IC50) reading was recorded for the compound NCCNC(=O)c1ccc(-c2c[nH]c3cc(F)ccc23)cc1 [Example 2] ?
2.18

Which log10(IC50) reading was recorded for the compound CS(=O)(=O)c1ccc(-c2c[nH]c3cc(F)ccc23)cc1 [Example 1] ?
1.92

Which log10(IC50) reading was recorded for the compound NCCN1CCN(S(=O)(=O)c2ccc(-c3c[nH]c4cc(F)ccc34)cc2)CC1=O [Example 148] ?
2.76

Which log10(IC50) reading was recorded for the compound O=S(=O)(c1ccc(-c2c[nH]c3cc(F)ccc23)cc1)N1CCOCC(O)C1 (stereo not drawn) [Example 118] ?
1.95

Which log10(IC50) reading was recorded for the compound CC(C)c1cc(-c2c[nH]c3cc(F)ccc23)ccc1S(=O)(=O)NCCC(N)=O [Example 163] ?
3.35

Which log10(IC50) reading was recorded for the compound O=C(CCNS(=O)(=O)c1ccc(-c2c[nH]c3cc(F)ccc23)cc1)N1C[C@H](O)[C@@H](O)C1 [Example 171] ?
3.24

Which log10(IC50) reading was recorded for the compound Cc1nccn1CC1(O)CCCN(S(=O)(=O)c2ccc(-c3c[nH]c4cc(F)ccc34)cc2)C1 (stereo not drawn) [Example 122] ?
4.93

Which log10(IC50) reading was recorded for the compound N[C@@H]1CN(S(=O)(=O)c2ccc(-c3c[nH]c4cc(F)ccc34)cc2)C[C@@H]1F [Example 83] ?
2.04

Which log10(IC50) reading was recorded for the compound O=C(CCNS(=O)(=O)c1ccc(-c2c[nH]c3cc(F)ccc23)cc1)N[C@H]1CCOC1 [Example 104] ?
2.38

====

- tgt: hTDO2 in human glioblastoma A172 cells (Homo sapiens (Human), UniProt P48775)
- assay-summary: Cellular assay for TDO2 activity determination in A172 cells
- test-context: overnight incubation, kynurenine absorbance at 480 nm
Give measured IC50 for each item. Keep answers brief.
Numeric only. Scale: nM

Short answer please: IC50, hTDO2 in human glioblastoma A172 cells (Homo sapiens (Human), UniProt P48775), entry Cc1nnc(CNS(=O)(=O)c2ccc(-c3c[nH]c4cc(F)ccc34)cc2)o1 [Example 89]
200

Short answer please: IC50, hTDO2 in human glioblastoma A172 cells (Homo sapiens (Human), UniProt P48775), entry O=S(=O)(c1ccc(-c2c[nH]c3ccccc23)cc1)N1CCNCC1 [Example 20]
250

Short answer please: IC50, hTDO2 in human glioblastoma A172 cells (Homo sapiens (Human), UniProt P48775), entry CNCCN1CCN(S(=O)(=O)c2ccc(-c3c[nH]c4cc(F)ccc34)cc2)CC1=O [Example 150]
365

Short answer please: IC50, hTDO2 in human glioblastoma A172 cells (Homo sapiens (Human), UniProt P48775), entry O=S(=O)(c1ccc(-c2c[nH]c3cc(F)ccc23)cc1)N1C[C@@H](O)[C@H](O)C1 [Example 74]
96

Short answer please: IC50, hTDO2 in human glioblastoma A172 cells (Homo sapiens (Human), UniProt P48775), entry NC(=O)COC1CCN(S(=O)(=O)c2ccc(-c3c[nH]c4cc(F)ccc34)cc2)CC1 [Example 84]
260

Short answer please: IC50, hTDO2 in human glioblastoma A172 cells (Homo sapiens (Human), UniProt P48775), entry Cc1nccn1CC1(O)CCN(S(=O)(=O)c2ccc(-c3c[nH]c4cc(F)ccc34)cc2)C1 (centres unmarked) [Example 131]
90000

Short answer please: IC50, hTDO2 in human glioblastoma A172 cells (Homo sapiens (Human), UniProt P48775), entry C[C@@H](O)CNS(=O)(=O)c1ccc(-c2c[nH]c3cc(F)ccc23)cc1 [Example 93]
200

Short answer please: IC50, hTDO2 in human glioblastoma A172 cells (Homo sapiens (Human), UniProt P48775), entry CCc1cc(-c2c[nH]c3cc(F)ccc23)ccc1S(=O)(=O)NCCC(N)=O [Example 162]
405

====

Give measured IC50 for each item. Keep answers brief.
- tgt: hTDO2 in human glioblastoma A172 cells (Homo sapiens (Human))
- assay-summary: Cellular assay for TDO2 activity determination in A172 cells
- test-context: overnight incubation, kynurenine absorbance at 480 nm
Numeric only. Scale: nM

Which IC50 reading was recorded for the compound O=S(=O)(c1c(Cl)cc(-c2c[nH]c3cc(F)ccc23)cc1Cl)N1CCNCC1 [Example 76] ?
833

Which IC50 reading was recorded for the compound O=C(NCCNS(=O)(=O)c1ccc(-c2c[nH]c3cc(F)ccc23)cc1)N1CCOCC1 [Example 108] ?
170

Which IC50 reading was recorded for the compound C[C@H](O)CNS(=O)(=O)c1ccc(-c2c[nH]c3cc(F)ccc23)cc1 [Example 94] ?
300

Which IC50 reading was recorded for the compound O=C(c1ccc(-c2c[nH]c3cc(F)ccc23)cc1)N1CCNCC1 [Example 3] ?
110
